# Protocol details: NCI Yeast Anticancer Drug Screen. Data for the bub3 strain (AID 167)
# Condition parameters: S. cerevisiae bub3 mutant strain, at 3.7 µM, active compounds read high
# Protocol: Growth inhibition of yeast strains with defined genetic alterations is measured as a screen for potential anti-cancer activity. Selected strains with alterations in DNA damage repair or cell cycle control were exposed to compounds and growth inhibition was measured relative to vehicle treated controls. The strain used in this assay is bub3
Compounds without any hit were thinned out: in the full panel of roughly 79,000, 15% have a hit.
growth inhibition below 10% gives condition not met; growth inhibition at or above it gives condition met.

>  <Molecular string>
COc1cc2c3c(cccc3c1)C(=O)N(CCN(C)C)C2=O

>  <Label>
condition not met

$$$$
>  <Molecular string>
C#CCCCc1ccccc1

>  <Label>
condition not met

$$$$
>  <Molecular string>
COc1ccc2c(c1)C(=O)c1ccccc1C2

>  <Label>
condition met

$$$$
>  <Molecular string>
O=C(O)c1cccc(-c2c3ccc(=O)cc-3oc3cc(O)ccc23)c1

>  <Label>
condition met

$$$$
>  <Molecular string>
Cc1nc(-[n+]2nc(-c3ccncc3)nn2-c2ccccc2)sc1C

>  <Label>
condition not met

$$$$

###

# Protocol details: NCI Yeast Anticancer Drug Screen. Data for the rad50EPP+ strain (AID 151)
# Condition parameters: S. cerevisiae rad50 mutant strain, at 33.0 µM, active compounds read high
Compounds without any hit were thinned out: in the full panel of roughly 79,000, 15% have a hit.
Would you please tag the item Met when its growth inhibition is 10% or above, and Not met when it is below?

>  <Compound>
Cc1ccc(Nc2nc3c(=O)n(C)c(=O)n(C)c3nc2Nc2ccc(C)cc2)cc1

>  <Label>
Not met

$$$$
>  <Compound>
BrCc1cccc2ccc3cccc(CBr)c3c12

>  <Label>
Met

$$$$
>  <Compound>
CNC(=O)OCc1c(COC(=O)NC)c(-c2ccc(Cl)c(Cl)c2)n2c1CCC2

>  <Label>
Not met

$$$$
>  <Compound>
O=Cc1cccc2ccc3ccccc3c12

>  <Label>
Met

$$$$
>  <Compound>
O=C(N=Nc1ccccc1Cl)NNc1ccccc1Cl

>  <Label>
Met

$$$$
>  <Compound>
O=C1C(Nc2ccccc2)=C(Oc2ccccc2)C(=O)c2ccccc21

>  <Label>
Met

$$$$
>  <Compound>
CCN(CC)CC[n+]1ccc2c(C)c3[nH]c4ccc(O)cc4c3c(C)c2c1

>  <Label>
Met

$$$$
>  <Compound>
Oc1ccc(NCn2c(=S)sc3ccccc32)cc1

>  <Label>
Not met

$$$$
>  <Compound>
CCN(CC)C(=S)N/N=C(/C)c1cccc(/C(C)=N\NC(=S)N(CC)CC)n1

>  <Label>
Met

$$$$
>  <Compound>
CC(=O)SCCC[Si](C)(C)CCCSC(C)=O

>  <Label>
Met

$$$$
>  <Compound>
CC1(Cl)CC(O)C2(CC1Br)C1(C)OC1C1OC1(Br)C2(C)C (stereo unspecified)

>  <Label>
Not met

$$$$

###

# Protocol details: NCI Yeast Anticancer Drug Screen. Data for the mec2-1 strain (AID 157)
# Condition parameters: S. cerevisiae mec2-1 strain, at 50.0 µM
The panel holds about 79,000 compounds, 15% with a hit somewhere; the sample as a whole holds those more often. The source made the active and inactive calls. Cut-off read from the data, not from the text of the source: active = growth inhibition above about 70%; inactive = the rest.
Classes used: active, inactive

>  <Molecular string>
C[C@@H]1C[C@H]2[C@@H]3CCC4=CC(=O)C=C[C@]4(C)[C@@]3(Cl)[C@@H](Cl)C[C@]2(C)[C@@]1(O)C(=O)COP(=O)(O)O

>  <Label>
inactive

$$$$
>  <Molecular string>
O=C(/C=C\c1ccc(Cl)cc1Cl)c1cccs1

>  <Label>
inactive

$$$$
>  <Molecular string>
CC(C)c1cc(C(C)C)c(O)c(C([O-])[O-])c1.CC(C)c1cc(C(C)C)c(O)c(C([O-])[O-])c1.CC(C)c1cc(C(C)C)c(O)c(C([OH2+])[OH2+])c1.CC(C)c1cc(C(C)C)c(O)c(C([OH2+])[OH2+])c1.[Cu+2].[Cu+2].[OH3+].[OH3+]

>  <Label>
inactive

$$$$
>  <Molecular string>
O=C(NCCCCCCCN1CCCCCCC1)C(C1CCCCC1)C1CCCCC1

>  <Label>
active

$$$$
>  <Molecular string>
CCCc1cc(C(=O)OCC)cc(CCC)c1O

>  <Label>
active

$$$$
>  <Molecular string>
CCC/C(Cl)=N\OC(=O)Nc1ccc(Br)cc1

>  <Label>
active

$$$$
>  <Molecular string>
CCOC(=O)c1cc(-c2ccc(Cl)cc2)c([N+](=O)[O-])n1C

>  <Label>
active

$$$$
>  <Molecular string>
O=C1c2ccccc2C(=O)c2cc(CBr)ccc21

>  <Label>
active

$$$$
>  <Molecular string>
COc1ccc(/C=C2\SC(=S)N(/C=C/c3nc4ccccc4[nH]c3=O)C2=O)cc1OC

>  <Label>
inactive

$$$$
